system: LOC_OS01G48390-cb002; assay: thermal shift delta Tm vs DMSO control; higher = stronger stabilization (binding); details: 12.5 µM; protein concentration 2 µM;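 note: purified Escherichia coli-expressed rice kinase domain construct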
RECORDED ENDPOINT: thermal shift delta Tm
Provide the measurement as a number trailed by its unit.

Known results for molecules:
                                   molecule                system  value_reported
0  Cc1cc(Nc2ncnc3ccc(-c4ccc(CNCCS(C)(=O)=O)o4)cc23)ccc1Oc1ccn2ncnc2c1 [HER2-Inhibitor-1]  LOC_OS01G48390-cb002         0.83 °C
1  CC(=O)Nc1nc(C)c(-c2ccc(Cl)c(S(=O)(=O)NCCO)c2)s1  LOC_OS01G48390-cb002         0.24 °C

# evaluate next
Lab note: need thermal shift delta Tm for N#Cc1c(Oc2ccc(F)c(NC(=O)Cc3cccc(C(F)(F)F)c3)c2)ccc2nc(NC(=O)C3CC3)sc12 on LOC_OS01G48390-cb002, anyone have it?
1.04 °C

----------
tested on: LOC_OS05G16824-cb004; experiment: thermal shift delta Tm vs DMSO control; higher = stronger stabilization (binding); conditions: 12.5 µM; protein concentration 2 µM
Where a name gives a salt, the structure may show the parent alone.
RECORDED ENDPOINT: thermal shift delta Tm (°C)
Give bare numbers, in °C.

Batch of 3 molecules: report thermal shift delta Tm for each.
1. Oc1ccc(Nc2nc(-c3ccc(Cl)cc3)cs2)cc1
2. O=C(NOC[C@H](O)CO)c1ccc(F)c(F)c1Nc1ccc(I)cc1F
3. CN1CC[C@H](c2c(O)cc(O)c3c(=O)cc(-c4ccccc4Cl)oc23)[C@H](O)C1 [Flavopiridol HCl]

[-0.03, 0.88, 0.91]

----------
system: LOC_OS01G57100-cb003; assay: thermal shift delta Tm vs DMSO control; higher = stronger stabilization (binding); settings: 12.5 µM; protein concentration 2 µM
The class of a record is decided solely by its measured thermal shift delta Tm; consult lower band = under 0.9 °C, central band = from 0.9 °C up to 2 °C, upper band = 2 °C and over

Examples with answers:
>>> df
                                   compound  assigned_class
0             CCc1ccc(/C=C2/SC(=S)NC2=O)cc1      upper band
1  O=C1NC(=O)C(c2cnc3ccccn23)=C1c1cn2c3c(cc(F)cc13)CN(C(=O)N1CCCCC1)CC2    central band
2  CNC(=O)c1ccccc1Nc1cc(Nc2ccc(N3CCOCC3)cc2OC)ncc1C(F)(F)F      upper band
3  Cc1cc(Nc2cc(Cl)nc(Oc3ccc([N+](=O)[O-])cc3)n2)n[nH]1    central band
4    COc1ccc(Cl)cc1NC(=O)Nc1cc(C)nc2ccccc12    central band
5  Oc1ccc(-c2nc(-c3ccc(F)cc3)c(-c3ccncc3)[nH]2)cc1    central band
6  NC1(Cc2ccc(Cl)cc2)CCN(c2ncnc3[nH]ccc23)CC1      upper band
7  CCOc1ccn(-c2ccc(F)cc2)c(=O)c1C(=O)Nc1ccc(Oc2ccnc(N)c2Cl)c(F)c1    central band

Now, please, on to the next compound.
Class for CC[C@@H]1C(=O)N(C)c2cnc(Nc3ccc(C(=O)NC4CCN(C)CC4)cc3OC)nc2N1C1CCCC1 ?
lower band

Taken from the supplement of paper PMC9694430.
